The entries below are paired with their reported Selectivity ratio.
Species: Homo sapiens
test-protocol: Selectivity for human adenosine A2A receptor over human adenosine A1 receptor
property: Selectivity ratio

* Nc1nc2c(ncn2CCN2CCC(c3ccc(F)cc3)CC2)c2nc(-c3ccco3)nn12 | 196
* Nc1nc2c(ncn2Cc2ccccc2Cl)c2nc(-c3ccco3)nn12 | 9
* Cc1ccc(N2CCN(CCn3cnc4c3nc(N)n3nc(-c5ccco5)nc43)CC2)nc1 | 162
* Nc1nc2c(ncn2Cc2ccccc2C(F)(F)F)c2nc(-c3ccco3)nn12 | 30
* COCCOc1ccc(N2CCN(CCn3cnc4c3nc(N)n3nc(-c5ccccc5F)nc43)CC2)cc1 | 15

----------
Species: Homo sapiens
test-protocol: Selectivity for human adenosine A2A receptor over human adenosine A1 receptor
# maps each entry to its Selectivity ratio
property: Selectivity ratio

• COc1ccc(N2CCN(CCn3cnc4c3nc(N)n3nc(-c5ccco5)nc43)CC2)cc1 = 1700
• Nc1nc2c(ncn2CCN2CCN(c3ccccc3)CC2)c2nc(-c3ccco3)nn12 = 182
• COCCOc1ccc(N2CCN(CCn3cnc4c3nc(N)n3nc(-c5ccccc5C(F)(F)F)nc43)CC2)cc1 = 181
• COCCOc1ccc(N2CCN(CCn3cnc4c3nc(N)n3nc(-c5ccccn5)nc43)CC2)cc1 = 108
• Nc1nc2c(ncn2CCN2CCN(c3cccc(Cl)c3)CC2)c2nc(-c3ccco3)nn12 = 371
• COCCOc1ccc(N2CCN(CCn3cnc4c3nc(N)n3nc(-c5ccco5)nc43)CC2)c(F)c1 = 517
• Nc1nc2c(ncn2CCN2CCN(c3ccc(Cl)cn3)CC2)c2nc(-c3ccco3)nn12 = 333
• Nc1nc2c(ncn2CCN2CCN(c3nccs3)CC2)c2nc(-c3ccco3)nn12 = 138
• Nc1nc2c(ncn2CCc2ccccc2)c2nc(-c3ccco3)nn12 = 33

----------
Species on record: Homo sapiens
test-protocol: Selectivity for human adenosine A2A receptor over human adenosine A1 receptor
property: Selectivity ratio

* COCCOc1ccc(C2CCN(CCn3cnc4c3nc(N)n3nc(-c5ccco5)nc43)CC2)cc1 | 519
* COCCOc1ccc(N2CCN(CCn3cnc4c3nc(N)n3nc(-c5ccco5)nc43)CC2)cc1 | 669
* CCCn1cnc2c1nc(N)n1nc(-c3ccco3)nc21 | 50
* COCCOc1ccc(N2CCN(CCn3cnc4c3nc(N)n3nc(-c5cccc(F)c5)nc43)CC2)cc1 | 83
* COCCOc1ccc(N2CCN(CCn3cnc4c3nc(N)n3nc(-c5ccccc5)nc43)CC2)cc1 | 91

----------
tested-target: UniProtKB P29274
Sequence (P29274 whole entry): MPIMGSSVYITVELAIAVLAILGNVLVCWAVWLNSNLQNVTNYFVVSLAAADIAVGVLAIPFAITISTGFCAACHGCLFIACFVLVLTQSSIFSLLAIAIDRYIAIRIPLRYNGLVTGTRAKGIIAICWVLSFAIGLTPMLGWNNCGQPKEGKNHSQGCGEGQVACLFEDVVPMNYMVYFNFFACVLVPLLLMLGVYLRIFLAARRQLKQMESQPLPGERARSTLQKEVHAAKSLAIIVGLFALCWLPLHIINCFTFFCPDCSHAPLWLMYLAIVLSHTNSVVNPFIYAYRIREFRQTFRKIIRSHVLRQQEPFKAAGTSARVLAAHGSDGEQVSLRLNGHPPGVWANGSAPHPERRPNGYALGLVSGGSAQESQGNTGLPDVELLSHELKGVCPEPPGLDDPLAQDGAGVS
test-protocol: Antagonist activity at human adenosine A2A receptor
pKi: −log10 of the molar value.
property: pKi

* COCCOc1ccc(N2CCN(CCn3cnc4c3nc(N)n3nc(-c5ccco5)nc43)CC2)c(C(F)(F)F)c1 | 9.40
* Nc1nc2c(ncn2CCN2CCN(c3ccccc3)CC2)c2nc(-c3ccco3)nn12 | 8.77
* COCCOc1ccc(N2CCN(CCn3cnc4c3nc(N)n3nc(-c5ccccc5)nc43)CC2)cc1 | 8.43
* Nc1nc2c(ncn2Cc2ccccc2Br)c2nc(-c3ccco3)nn12 | 8.34
* Nc1nc2c(ncn2CCN2CCN(c3cccc(Cl)c3)CC2)c2nc(-c3ccco3)nn12 | 9.40
* Nc1nc2c(ncn2CCN2CCN(c3ccc(F)cc3F)CC2)c2nc(-c3ccco3)nn12 | 9.15
* COCCOc1ccc(C2CCN(CCn3cnc4c3nc(N)n3nc(-c5ccco5)nc43)CC2)cc1 | 9.15
* Nc1nc2c(ncn2Cc2ccccc2Cl)c2nc(-c3ccco3)nn12 | 8.77
* Cc1ccc(N2CCN(CCn3cnc4c3nc(N)n3nc(-c5ccco5)nc43)CC2)nc1 | 9.00
* Nc1nc2c(ncn2CCN2CCN(c3nccs3)CC2)c2nc(-c3ccco3)nn12 | 8.77
* COCCOc1ccc(N2CCN(CCn3cnc4c3nc(N)n3nc(-c5ccccn5)nc43)CC2)cc1 | 7.90
* Nc1nc2c(ncn2Cc2ccccc2C(F)(F)F)c2nc(-c3ccco3)nn12 | 8.34
* Nc1nc2c(ncn2CCc2ccccc2)c2nc(-c3ccco3)nn12 | 8.39
* COCCOc1ccc(N2CCN(CCn3cnc4c3nc(N)n3nc(-c5cccc(F)c5)nc43)CC2)cc1 | 8.70
* CCCn1cnc2c1nc(N)n1nc(-c3ccco3)nc21 | 8.23
* Nc1nc2c(ncn2CCN2CCN(c3ccc(Cl)cc3F)CC2)c2nc(-c3ccco3)nn12 | 9.52
* COCCOc1ccc(N2CCN(CCn3cnc4c3nc(N)n3nc(-c5cccc[n+]5[O-])nc43)CC2)cc1 | 7.05
* COCCOc1ccc(N2CCN(CCn3cnc4c3nc(N)n3nc(-c5ccco5)nc43)CC2)c(F)c1 | 9.10
